Biological target: T1, cell surface mALK on Neuro2a cells (Mus musculus, UniProt P97793)
T1 construct: Neuro-2a cells that express low levels of endogenous murine ALK; endogenous in cells; host or cells: Neuro-2a (Neuro2a) mouse neuroblastoma cells
T1 sequence (P97793 19-1621): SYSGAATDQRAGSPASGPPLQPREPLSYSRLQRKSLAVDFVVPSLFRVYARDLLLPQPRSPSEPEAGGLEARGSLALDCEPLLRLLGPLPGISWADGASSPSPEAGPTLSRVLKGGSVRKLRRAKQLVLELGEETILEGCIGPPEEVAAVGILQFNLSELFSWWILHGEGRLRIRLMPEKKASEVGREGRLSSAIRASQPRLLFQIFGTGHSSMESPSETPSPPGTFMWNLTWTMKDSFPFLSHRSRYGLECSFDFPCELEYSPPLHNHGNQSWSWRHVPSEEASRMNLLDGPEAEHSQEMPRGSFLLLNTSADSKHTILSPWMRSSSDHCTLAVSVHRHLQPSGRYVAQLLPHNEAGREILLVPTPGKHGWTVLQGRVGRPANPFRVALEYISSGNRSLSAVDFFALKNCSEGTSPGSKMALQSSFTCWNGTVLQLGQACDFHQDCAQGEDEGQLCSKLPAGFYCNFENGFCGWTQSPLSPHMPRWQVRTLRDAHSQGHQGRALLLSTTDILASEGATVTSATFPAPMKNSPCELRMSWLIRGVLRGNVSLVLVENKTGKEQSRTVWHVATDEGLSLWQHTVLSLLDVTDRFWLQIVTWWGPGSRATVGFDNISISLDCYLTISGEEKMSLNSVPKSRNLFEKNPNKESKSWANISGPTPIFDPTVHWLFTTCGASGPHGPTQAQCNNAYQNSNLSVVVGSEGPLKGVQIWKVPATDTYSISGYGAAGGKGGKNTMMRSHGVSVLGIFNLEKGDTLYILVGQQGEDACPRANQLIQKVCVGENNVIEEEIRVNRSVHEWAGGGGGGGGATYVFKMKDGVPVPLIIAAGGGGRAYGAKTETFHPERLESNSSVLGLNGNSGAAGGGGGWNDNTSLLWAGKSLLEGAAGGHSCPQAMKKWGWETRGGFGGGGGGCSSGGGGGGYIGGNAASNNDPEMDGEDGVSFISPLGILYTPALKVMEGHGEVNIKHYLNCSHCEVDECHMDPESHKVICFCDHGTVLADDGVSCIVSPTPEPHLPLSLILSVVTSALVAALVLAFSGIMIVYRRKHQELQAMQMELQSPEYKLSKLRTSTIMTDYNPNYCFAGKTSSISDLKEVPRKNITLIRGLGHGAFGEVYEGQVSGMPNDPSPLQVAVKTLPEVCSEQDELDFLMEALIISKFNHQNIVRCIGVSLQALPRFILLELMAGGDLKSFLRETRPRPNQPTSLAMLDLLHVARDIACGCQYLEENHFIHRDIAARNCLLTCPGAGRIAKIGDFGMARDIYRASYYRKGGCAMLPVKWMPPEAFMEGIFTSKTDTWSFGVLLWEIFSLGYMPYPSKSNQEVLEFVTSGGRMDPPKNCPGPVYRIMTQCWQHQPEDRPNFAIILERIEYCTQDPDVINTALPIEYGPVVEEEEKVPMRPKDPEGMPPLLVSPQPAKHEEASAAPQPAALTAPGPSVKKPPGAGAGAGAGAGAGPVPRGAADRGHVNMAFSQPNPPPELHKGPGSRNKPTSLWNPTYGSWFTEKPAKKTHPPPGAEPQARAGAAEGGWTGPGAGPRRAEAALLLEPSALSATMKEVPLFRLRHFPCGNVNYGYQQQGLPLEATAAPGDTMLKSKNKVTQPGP
Assay: KD of humanized antibodies on Neuro2a (mouse) cells
Type: binding
Details: FACS, mean

>  <molecule>
Ab326: anti-ALK monoclonal antibody; VL SEQ ID NO: 407, VH SEQ ID NO: 408 (antibody, V domains shown, VH domain - Ab326; VL domain - Ab326) VH: QVQLQQSGAELAKPGASVKLSCKASGYTFTSYWMHWVKQRPGQGLEWIGYIKPSSGYTKYNQKFKDKATLTADKSSSTAYMQLSSLTYEDSAVYYCARDYYGSSSWFAYWGQGTLVTVSA VL: DIVMTQSQRFMSTSVGDRVSVTCKASQNVGTNVAWYQQKPGQSPKALIYSASYRYSGVPDRFTGSGSGTDFTLTISNVQSEDLAEYFCQQYNSYPYMYTFGGGTKLEIKR

>  <Kd / nM>
0.58

$$$$
>  <molecule>
Ab400: humanized anti-ALK antibody; VL SEQ ID NO: 425, VH SEQ ID NO: 430 (antibody, V domains shown, VH domain - Ab352; VL domain - Ab399) VH: EVQLVQSGPEVKKPGTSVKLSCKASGYTFTSYWMHWVRQARGQRLEWIGYIKPSSGYTKYNQKFKDRATLTADKSTSTAYMELSSLRSEDTAVYYCARDYYGSSSWFAYWGQGTLVTVSS VL: EIVMTQSQATMSTSVGERATLSCKASQNVGTNVAWYQQKPGQSPKALIYSASYRYSGVPARFSGSGSGTDFTLTISSVEPEDFAVYYCQQYNSYPYMYTFGQGTKLEIK

>  <Kd / nM>
7.4

$$$$
>  <molecule>
Ab403: humanized anti-ALK antibody; VL SEQ ID NO: 425, VH SEQ ID NO: 433 (antibody, V domains shown, VH domain - Ab355; VL domain - Ab399) VH: QVQLVQSGAEVAKPGASVKLSCKASGYTFTSYWMHWVKQAPGQGLEWIGYIKPSSGYTKYNQKFKDKATLTADKSTSTAYMELRSLRSDDTAVYYCARDYYGSSSWFAYWGQGTLVTVSS VL: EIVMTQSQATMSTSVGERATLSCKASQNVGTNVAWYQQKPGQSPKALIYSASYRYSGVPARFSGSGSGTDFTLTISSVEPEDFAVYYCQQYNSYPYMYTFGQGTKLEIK

>  <Kd / nM>
4.15

$$$$
